Test system: RAW264.7 macrophages
Assay: Cytotoxicity by MTT assay
Type: cell-based
Conditions: RAW264.7 macrophages, MTT
Listed here: items and their measured Cytotoxicity (μM): the maximum concentration not affecting cell viability.
The response must be a number in µM with no trailing unit.

{"compound": "CC1CCCCCC(=O)c2c(O)cc(O)cc2CC(=O)O1 (centres unmarked) [Formula 1a, curvularin]", "assayTarget": "RAW264.7 macrophages", "valueUnits": "µM", "measuredValue": 40}
{"compound": "C[C@H]1CCC[C@H](O)C(=O)c2c(O)cc(O)cc2CC(=O)O1 [Formula 2b, (11S,15S)-11-hydroxycurvularin]", "assayTarget": "RAW264.7 macrophages", "valueUnits": "µM", "measuredValue": 40}
{"compound": "CO[C@H]1CCC[C@H](C)OC(=O)Cc2cc(O)cc(O)c2C1=O [Formula 2d, (11S,15S)-11-methoxycurvularin]", "assayTarget": "RAW264.7 macrophages", "valueUnits": "µM", "measuredValue": 20}
{"compound": "C[C@H]1CCC[C@@H](O)CC(=O)c2c(O)cc(O)cc2CC(=O)O1 [Formula 2a, (11R,15S)-11-hydroxycurvularin]", "assayTarget": "RAW264.7 macrophages", "valueUnits": "µM", "measuredValue": 40}
{"compound": "CO[C@@H]1CCC[C@H](C)OC(=O)Cc2cc(O)cc(O)c2C(=O)C1 [Formula 2c, (11R,15S)-11-methoxycurvularin]", "assayTarget": "RAW264.7 macrophages", "valueUnits": "µM", "measuredValue": 20}

What does the record list as Cytotoxicity (μM): the maximum concentration not affecting cell viability for C[C@H]1CCC/C=C/C(=O)c2c(O)cc(O)cc2CC(=O)O1 [Formula 3, (10E,15S)-10,11-dehydrocurvularin] ?
20

For the compound C[C@H]1CCC/C=C\C(=O)c2c(O)cc(O)cc2CC(=O)O1 [Formula 4, (10Z,15S)-10,11-dehydrocurvularin] , what Cytotoxicity (μM): the maximum concentration not affecting cell viability is on record?
20
